Below: a set of entries, each annotated with reported growth inhibition.
# protocol.summary: NCI Yeast Anticancer Drug Screen. Data for the bub3 strain (AID 167)
# condition: S. cerevisiae bub3 mutant strain, at 50.0 µM, hits give high values
The panel holds about 79,000 compounds, 15% with a hit somewhere; the sample as a whole holds those more often.
Give your result in % as a bare value.

Task: Tell me the measured growth inhibition of ONC(=Nc1cccc2ccccc12)C(=Nc1cccc2ccccc12)NO , please.
Result: 47.5

Task: Tell me the measured growth inhibition of CC(C)OP(=O)(CCCCCCCCC/C=C/c1ccc2c(c1)OCCOCCOCCOCCO2)OC(C)C , please.
Result: 98.3
